glycan array binding signal (z-score) values for the binders below.
- targetDesc: Neu5Ac(a2-8)Neu5Ac(a2-8)Neu5Ac(a2-3)[GalNAc(b1-4)]Gal(b1-4)Glc
- testMethodNotes: glycan array binding signal (z-score within array); higher = stronger binding
- details: glycan notation: IUPAC condensed, linker removed
The full list was thinned out, with the strongest signals kept by preference.
measuredQuantity: glycan array binding signal (z-score)

- binder: "cupB6 (Pseudomonas aeruginosa), Q02SP7 (protein) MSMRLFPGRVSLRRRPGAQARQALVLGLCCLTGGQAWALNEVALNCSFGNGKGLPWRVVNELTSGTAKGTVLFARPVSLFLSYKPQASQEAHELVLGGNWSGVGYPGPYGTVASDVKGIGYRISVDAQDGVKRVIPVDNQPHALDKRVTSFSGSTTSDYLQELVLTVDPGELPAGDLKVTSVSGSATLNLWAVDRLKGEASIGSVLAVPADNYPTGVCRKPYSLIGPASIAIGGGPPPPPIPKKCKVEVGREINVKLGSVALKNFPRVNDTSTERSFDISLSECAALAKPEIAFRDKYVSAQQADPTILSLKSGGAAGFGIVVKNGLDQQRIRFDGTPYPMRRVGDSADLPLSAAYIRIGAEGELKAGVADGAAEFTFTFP"
  recordedValue: -0.074
- binder: "LF82 (Escherichia coli) (protein) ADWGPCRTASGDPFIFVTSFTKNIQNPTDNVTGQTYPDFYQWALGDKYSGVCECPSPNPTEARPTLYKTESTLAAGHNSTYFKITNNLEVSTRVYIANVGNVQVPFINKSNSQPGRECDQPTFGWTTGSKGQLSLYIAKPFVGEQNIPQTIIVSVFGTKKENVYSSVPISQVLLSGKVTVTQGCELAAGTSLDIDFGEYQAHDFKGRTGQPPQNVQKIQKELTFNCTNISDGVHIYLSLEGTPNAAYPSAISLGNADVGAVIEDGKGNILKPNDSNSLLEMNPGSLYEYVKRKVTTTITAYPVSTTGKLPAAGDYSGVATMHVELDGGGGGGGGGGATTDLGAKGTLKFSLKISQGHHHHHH"
  recordedValue: -0.553
